Origin of measurements: the supplement of paper PMC11061612

- System: KINGS-1 (Low Grade Glioma)
- procedure_text: combination Emax (second highest fraction inhibited in the dose matrix, 72 h); higher = more inhibition; extreme values may be limits of the assay
endpoint_label: combination Emax

{"compound": "C=CCn1c(=O)c2cnc(Nc3ccc(N4CCN(C)CC4)cc3)nc2n1-c1cccc(C(C)(C)O)n1 [AZD1775] + C[C@@H]1COCCN1C2=NC(=NC(=C2)C3(CC3)[S@](=N)(=O)C)C4=C5C=CNC5=NC=C4 [AZD6738] (first compound max 1 µM, partner max 10 µM)", "target_or_system": "KINGS-1 (Low Grade Glioma)", "endpoint_label": "combination Emax", "meas_value": 0.533}
{"compound": "CC1(C)CCC(CN2CCN(c3ccc(C(=O)NS(=O)(=O)c4ccc(NCC5CCOCC5)c([N+](=O)[O-])c4)c(Oc4cnc5[nH]ccc5c4)c3)CC2)=C(c2ccc(Cl)cc2)C1 [Venetoclax] + COc1cc(Nc2ncc3c(n2)-c2ccc(Cl)cc2C(c2c(F)cccc2OC)=NC3)ccc1C(=O)O [Alisertib] (first compound max 1 µM, 7x7, partner max 10 µM)", "target_or_system": "KINGS-1 (Low Grade Glioma)", "endpoint_label": "combination Emax", "meas_value": 0.379}
